Biological target: T1, Native human IL-18 (human, UniProt Q14116 37-193)
T1 sequence: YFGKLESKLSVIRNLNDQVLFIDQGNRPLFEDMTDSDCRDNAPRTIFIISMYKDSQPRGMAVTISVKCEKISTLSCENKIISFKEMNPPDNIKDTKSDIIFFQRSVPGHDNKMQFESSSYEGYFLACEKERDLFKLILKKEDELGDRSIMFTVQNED
Test: cell-based or functional assay
Readout Label: IC50, inhibition of IFN-γ release, human whole blood, LPS/IL-12 (native IL-18) (nM)

* MOR9464_N30E (antibody, human IgG1, lambda, L234A L235A, V domains shown) VH: EVQLVQSGAEVKKPGSSVKVSCKASGGTFESYAISWVRQAPGQGLEWMGNIIPMTGQTYYAQKFQGRVTITADESTSTAYMELSSLRSEDTAVYYCARAAYHPLVFDNWGQGTLVTVSS VL: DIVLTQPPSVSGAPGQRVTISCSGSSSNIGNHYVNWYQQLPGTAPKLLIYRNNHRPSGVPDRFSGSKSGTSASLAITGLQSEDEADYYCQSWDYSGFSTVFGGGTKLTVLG | 19.2
* MOR13347 (antibody, human IgG1, kappa, L234A L235A, V domains shown) VH: QVQLVQSGAEVKKPGSSVKVSCKASGGTFSTFSISWVRQAPGQGLEWMGGIIPIFGTANYAQKFQGRVTITADESTSTAYMELSSLRSEDTAVYYCARGGYGGYYYFDYWGQGTLVTVSS VL: DIQMTQSPSSLSASVGDRVTITCRASQSISNRLNWYQQKPGKAPKLLIYKGSTLQSGVPSRFSGSGSGTDFTLTISSLQPEDFATYYCQQHYQWLTTFGQGTKVEIKR | 8.3
